# Tested on: CAKI-1
# METHOD SUMMARY: NCI tumour cell line growth inhibition, 48 h
Active and inactive are the calls of the source. Rule as the data show it: active = GI50 up to about 1.1 µM and inactive = higher.
GI50 by entry:

Below, each entry is followed by its recorded GI50 result.
[
  {
    "MOLECULE": "CC1CC[C@@]23CCC4(C)[C@@](C=CC5[C@@]6(C)CCC(=O)C(C)(C)C6CC[C@]54C)(OC2=O)[C@@H]3[C@H]1C (some centres undefined)",
    "READOUT LABEL": "GI50",
    "RESULT VALUE": "21.5 µM (inactive)"
  },
  {
    "MOLECULE": "CN1C(=O)C(O)CC1c1cccc(F)c1 (centres undefined)",
    "READOUT LABEL": "GI50",
    "RESULT VALUE": "> 100 µM (inactive)"
  },
  {
    "MOLECULE": "C/C=C\\C(CC(=O)OC)CC(=O)N(CCC1CN(S(=O)(=O)C(F)(F)F)c2ccccc21)Cc1ccc(OC)cc1OC (centres undefined)",
    "READOUT LABEL": "GI50",
    "RESULT VALUE": "> 100 µM (inactive)"
  },
  {
    "MOLECULE": "O=C(O)c1ccc(Oc2nc3ccccc3s2)cc1",
    "READOUT LABEL": "GI50",
    "RESULT VALUE": "> 100 µM (inactive)"
  },
  {
    "MOLECULE": "COc1ccc(/C=c2/sc3n(c2=O)NC2(CCCCC2)NN=3)cc1",
    "READOUT LABEL": "GI50",
    "RESULT VALUE": "> 100 µM (inactive)"
  },
  {
    "MOLECULE": "O=C(Nc1ccc(Cl)c(Cl)c1)C1C(=O)N(c2ccc(Cl)c(Cl)c2)C(=O)/C1=N\\O (centres undefined)",
    "READOUT LABEL": "GI50",
    "RESULT VALUE": "> 100 µM (inactive)"
  },
  {
    "MOLECULE": "NCCP(=O)(O)O",
    "READOUT LABEL": "GI50",
    "RESULT VALUE": "> 100 µM (inactive)"
  },
  {
    "MOLECULE": "Cn1c(=O)c2c(O)cc(N)nc2n(C)c1=O",
    "READOUT LABEL": "GI50",
    "RESULT VALUE": "28.9 µM (inactive)"
  }
]

Task: Report GI50, nothing else, for this molecule: CN1CSC(=S)N(c2cccc(C(F)(F)F)c2)C1
Output: 26.4 µM (inactive)
